# test: Solubility in EtOH/MeOH for the chromatographic separation
# Assay type: physicochemical
# test.context: organic solvent or mixture; in EtOH/MeOH 80/20 (v/v)
observed.property: solubility (mg/mL)

> print(dat)
                                   compound  readout.number
1  CCN1CC(CCN2CCOCC2)C(c2ccccc2)(c2ccccc2)C1=O (racemic) [doxapram, reference compound]            19.9

* * *

# test: Solubility in EtOH/MeOH for the chromatographic separation
# Type: physicochemical
# test.context: organic solvent or mixture; in EtOH/MeOH (50/50 v/v)
observed.property: solubility (mg/mL)

> print(dat)
                                   molecule  value.unit  readout.number
1  CCN1CC(CCN2CCOCC2)C(c2ccccc2)(c2ccccc2)C1=O (racemic) [doxapram, reference compound]       mg/mL            12.6
